molecular target: Solute carrier family 12 member 5 (Homo sapiens); test: concentration-response of KCC2 transport modulators – cell-based, HEK293 KCC2, FluoZin-2 fluorescence, dose response (AID 1736); conditions: inactive by the depositor's call
For each entry below, report its pEC50 value.
Scale note: pEC50 = -log10(concentration in M).

What value of pEC50 has been reported for the following compound? Cc1nc(N2CCN(Cc3ccccc3)CC2)nc2c1C(=O)CCC2
5.06

Follow-up item: O=c1c2ccccc2[nH]c(=S)n1CCN1CCC(=C(c2ccc(F)cc2)c2ccc(F)cc2)CC1 [SMR000058550]
3.74

Follow-up item: O=C(COc1ccc2ccccc2c1Br)Nn1cnnc1
3.34

Follow-up item: N#C/C(=C\c1cn(-c2ccccc2)nc1-c1cccnc1)c1nnc2n1CCCCC2
5.84

Follow-up item: S=c1nc(-c2ccc3c(c2)CCO3)cc[nH]1
4.78

Follow-up item: Cc1ccccc1-c1nc(CS(=O)(=O)CC(=O)N2CCc3ccccc3C2)c(C)o1
4.66

Follow-up item: S=C(Nc1ccccn1)Nc1ccccc1Cl
5.71

Follow-up item: O=C(CSC1=NCCS1)Nc1nc(-c2ccccc2)cs1
2.72

Follow-up item: CC(C)CNC(=O)c1ccc(COc2ccc(Cl)cc2Cl)o1
4.98

Follow-up item: CC(C)CC(c1nnnn1Cc1cccs1)N1CCN(c2nc3ccccc3s2)CC1 (stereo not drawn)
4.33

Follow-up item: Cc1ccc(C(=O)CSc2nnc(COc3cccc4cccnc34)o2)cc1
5.09

Follow-up item: CCc1ccc(-c2nc(C[S+]([O-])CC(=O)NCc3cccnc3)c(C)o2)cc1 (stereo not drawn)
4.42

Follow-up item: Cc1[nH][nH]c(=O)c1C(c1ccc(-c2ccc(Cl)c(Cl)c2)o1)c1c(C)[nH][nH]c1=O
3.89

Follow-up item: O=C(CSc1nc2cc(Cl)ccc2s1)Nc1cccc(S(=O)(=O)N2CCOCC2)c1
4.60

Follow-up item: Sc1ccc2ccccc2n1 [MLS001006012]
5.10

Follow-up item: C[C@@H](C(=O)Nc1ccc2ccccc2c1)[C@@H]1C[C@@]1(C)[C@@H](NC(=O)c1cccnc1)c1ccccc1 [MLS000563527]
4.77

Follow-up item: CC(C)c1ccc(NC(=O)c2cnn(-c3ccccc3)c2NC(=O)c2ccco2)cc1
4.92

Follow-up item: O=C(NC(=S)NNC(=O)c1ccccc1O)c1ccco1
3.52

Follow-up item: CCc1ccc(-n2c(SCC(=O)c3ccc4c(c3)NC(=O)CO4)nc3ccccc3c2=O)cc1
4.29

Follow-up item: N#Cc1nc(COc2ccccc2F)oc1NCc1ccc(F)cc1
5.73

Follow-up item: CCOc1ccc(C(C(=O)NC2CCCC2)N(CCCO)C(=O)c2ccc(-c3ccccc3)[nH]2)cc1 (stereo not drawn)
3.07

Follow-up item: CC1=C(C(=O)OCCOc2ccccc2)C(c2ccsc2)NC(=O)N1C (stereo not drawn)
4.21

Follow-up item: N=C1SCC(=O)N1c1ncc(Cc2cccc(Cl)c2)s1
5.50

Follow-up item: O=C(/C=C/c1cccs1)Nc1scc(-c2ccccc2)c1C(=O)O [SMR000364116]
4.54

Follow-up item: Cc1nn(-c2ccccc2)c2sc(C(=O)N(Cc3ccco3)C(C)C(=O)NC(C)(C)C)cc12 (stereo not drawn)
4.48

Follow-up item: O=C(CSc1nnc(CNc2ccccc2)o1)c1ccc2c(c1)OCCO2
5.68

Follow-up item: O=C(Cn1nc(-c2ccccc2F)ccc1=O)NCc1ccc2c(c1)OCO2
5.08

Follow-up item: COn1c(SC2CCCCC2)nc2ccccc2c1=O
4.08

Follow-up item: CCc1ccc(OCC(=O)NNC(=O)CSc2ncnc3sc(C)c(C)c23)cc1
2.97

Follow-up item: COc1ccc(-c2nnc(-c3ccc(OCC(C)C)cc3)o2)cc1
8.90

Follow-up item: O=C(Nc1cc(S(=O)(=O)N2CCCCC2)ccc1Cl)c1ccccc1NS(=O)(=O)c1ccc(F)cc1 [MLS000707627]
4.00

Follow-up item: O=C(NCCCCc1ccccc1)C1CC(c2ccccc2C(F)(F)F)=NO1 (stereo not drawn) [MLS000561910]
4.39

Follow-up item: c1coc(CNc2nc3nonc3nc2NCc2ccco2)c1
4.36

====

For each entry below, report its pEC50 value.
Biological target: UniProt:Q9H2X9
Sequence (Q9H2X9 whole entry): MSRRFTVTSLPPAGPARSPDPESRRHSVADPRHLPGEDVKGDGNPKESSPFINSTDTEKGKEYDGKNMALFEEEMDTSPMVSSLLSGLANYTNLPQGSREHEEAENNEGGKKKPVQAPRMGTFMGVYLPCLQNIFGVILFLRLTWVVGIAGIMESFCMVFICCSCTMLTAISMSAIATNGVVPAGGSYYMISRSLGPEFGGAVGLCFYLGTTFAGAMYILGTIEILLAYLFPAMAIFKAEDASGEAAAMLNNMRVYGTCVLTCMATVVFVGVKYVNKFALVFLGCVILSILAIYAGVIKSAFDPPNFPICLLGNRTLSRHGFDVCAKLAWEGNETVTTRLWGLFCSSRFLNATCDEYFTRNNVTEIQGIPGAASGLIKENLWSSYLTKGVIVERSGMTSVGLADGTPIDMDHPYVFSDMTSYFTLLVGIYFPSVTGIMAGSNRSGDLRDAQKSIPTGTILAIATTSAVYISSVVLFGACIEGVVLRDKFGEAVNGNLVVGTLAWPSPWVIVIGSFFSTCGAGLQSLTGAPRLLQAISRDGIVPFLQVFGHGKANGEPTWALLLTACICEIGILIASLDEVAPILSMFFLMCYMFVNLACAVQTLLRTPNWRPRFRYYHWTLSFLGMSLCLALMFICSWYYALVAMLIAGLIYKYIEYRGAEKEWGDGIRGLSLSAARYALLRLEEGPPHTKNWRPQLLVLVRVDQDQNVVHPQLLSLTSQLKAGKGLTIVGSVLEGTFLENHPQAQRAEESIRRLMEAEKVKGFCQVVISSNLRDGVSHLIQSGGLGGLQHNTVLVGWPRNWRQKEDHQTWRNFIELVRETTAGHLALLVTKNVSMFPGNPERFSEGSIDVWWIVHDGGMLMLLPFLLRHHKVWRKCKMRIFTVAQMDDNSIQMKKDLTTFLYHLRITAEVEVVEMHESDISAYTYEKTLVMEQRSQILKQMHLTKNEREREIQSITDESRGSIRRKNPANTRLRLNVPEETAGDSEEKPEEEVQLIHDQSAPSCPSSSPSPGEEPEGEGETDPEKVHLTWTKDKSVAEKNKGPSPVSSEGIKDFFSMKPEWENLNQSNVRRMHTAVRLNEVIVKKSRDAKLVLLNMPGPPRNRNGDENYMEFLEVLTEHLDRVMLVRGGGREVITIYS
Assay: concentration-response of KCC2 transport modulators – cell-based, HEK293 KCC2, FluoZin-2 fluorescence, dose response (AID 1736)
Scale note: pEC50 = -log10(concentration in M).

What value of pEC50 has been reported for the following compound? COc1cccc(Nc2nnc(S)s2)c1
5.46

Follow-up item: O=C(Nc1cccnc1)c1ccc(COc2cc(Cl)ccc2Cl)o1
5.41

Follow-up item: CN1c2ccccc2Oc2nnc(N3CCN(Cc4ccccc4)CC3)cc21
5.73

Follow-up item: O=C(CN1C(=O)NC2(CCCC2)C1=O)Nc1nc(-c2ccc(F)cc2)cs1
6.81

====

target: Solute carrier family 12 member 5 (Homo sapiens); experiment: concentration-response of KCC2 transport modulators – cell-based, HEK293 KCC2, FluoZin-2 fluorescence, dose response (AID 1736)
Each record is given True if its reported EC50 is strictly below 3 µM. Records at or above 3 µM are given False.

Regarding O=C(Cn1cnc2c(nnn2Cc2ccc(F)cc2)c1=O)NCc1ccc2c(c1)OCO2 , kindly confirm whether its EC50 is beneath 3 µM.
True

Follow-up item: N#CC(C(=O)c1cccc(F)c1)c1nc2ccccc2s1 (stereo unspecified)
False

Follow-up item: Cc1nc(SCc2ccc(F)cc2)c([N+](=O)[O-])[nH]1
False

Follow-up item: Cn1c(C(=O)NCCCN2CCN(c3ccccc3F)CC2)cc2c(=O)n(C)c3ccccc3c21
False

Follow-up item: N#Cc1c(NC(=O)CSc2nc(N)cc(=O)[nH]2)sc2c1CCCCCC2
False

Follow-up item: O=C(O)CCn1c(SCc2cccc3ccccc23)nc2ccccc21
True

Follow-up item: COc1cc(OC)c(C2=NOC(C(=O)N3CCc4ccccc4C3)C2)cc1Cl (stereo unspecified)
False

Follow-up item: CS(=O)(=O)N(CC(=O)N1CCN(c2ccc(F)cc2)CC1)c1ccc(F)c(Cl)c1
False

Follow-up item: Cc1c(N=C2Nc3cccc4cccc2c34)c(=O)n(-c2ccccc2)n1C
True

Follow-up item: CS/C(=N\Cc1ccc(F)cc1)NS(=O)(=O)c1cccs1
True

Follow-up item: O=C(CSc1ccccc1C(=O)NCc1ccccc1)NC1CCCCCCC1
True

Follow-up item: c1ccc(-c2csc(N=NCc3ccco3)n2)cc1
True

Follow-up item: CC(C)(C)NC(=O)C(c1ccncc1)N(Cc1ccco1)C(=O)c1ccc(-c2ccccc2)[nH]1 (stereo unspecified)
False

Follow-up item: CSc1ccccc1N=C(S)Nc1ccc(S(N)(=O)=O)cc1
False

Follow-up item: CC(=O)NC(C)C(=O)OCC(=O)c1ccc(-c2ccccc2)cc1 (stereo unspecified)
False

Follow-up item: Cn1c(CSc2nc3ccccc3s2)nc2ccccc21
False

Follow-up item: C=CCn1c(Cc2cccs2)nnc1SCC(=O)c1ccc2ccccc2c1
False

Follow-up item: Cc1ccccc1-c1nc(C[S+]([O-])CC(=O)NCc2ccccc2)c(C)o1 (stereo unspecified)
False

Follow-up item: Cc1ccc2c(c1)nnn2C1CCN(S(=O)(=O)c2cccc(S(=O)(=O)N(C)C)c2)CC1
False

Follow-up item: CN1C(=O)/C(=C/c2ccccc2OCc2ccccc2)NC1=S
False

Follow-up item: O=C(O)CCN(Cc1ccccc1)S(=O)(=O)c1c(Cl)cccc1Cl
False

Follow-up item: Cc1ccc(Nc2nnc(SCC(=O)c3ccc(Br)s3)s2)c(C)c1
True

Follow-up item: O=C1Nc2ccc([N+](=O)[O-])cc2OC1CCN1CCN(Cc2ccccc2)CC1 (stereo unspecified)
False

Follow-up item: CCc1ccc(Nc2nnc(SCc3cc(=O)n4ccsc4n3)s2)cc1
True

Follow-up item: COCCNS(=O)(=O)c1ccc(-c2ccc(Cl)cc2)cc1
False

// data source = BindingDB's records for doi:10.7270/Q2M32T6M
